Where do these numbers come from? They come from PubChem BioAssay (NCI).

Tested on: MDA-MB-468 breast
Assay: NCI tumour cell line growth inhibition, 48 h
Where a SMILES comes first, the peptide text is derived from it. [ ]: non-standard residue; d: D form. NMeY = CN[C@@H](Cc1ccc(O)cc1)C(=O)O; dNMeF = CN[C@H](Cc1ccccc1)C(=O)O; Sar = CNCC(=O)O
Exercise: state measured TGI for each of the compounds provided.
Answers are plain numbers, in nM.

Example compounds with recorded TGI:
COMPOUND	TARGET OR SYSTEM	VALUE TYPE	NUMERIC RESULT
CC(=O)OC1CCC2(C)C(CCC3C4CC=C(C(C)=O)C4(C)OC(=O)CC32)C1 (stereo not drawn)	MDA-MB-468 breast	TGI	3740
CN1CCN(Cc2ccc(NC(=O)c3nc4ccc5[nH]ncc5c4c4c3CCC4)cc2C(F)(F)F)CC1	MDA-MB-468 breast	TGI	2080

Quick batch: TGI for everything below.
1. CC[C@H](C)[C@@H]1NC(=O)[C@H](Cc2ccc(O)cc2)N(C)C(=O)[C@H](Cc2ccccc2)NC(=O)CN(C)C(=O)[C@@H]2CCCN2C(=O)[C@@H](Cc2ccccc2)N(C)C(=O)[C@H](CC(C)C)NC1=O (cyclo(F[NMeY]IL[dNMeF]P[Sar]))
2. CC1(O)CC2(O)C=CC3=C(C(=O)c4cccc(O)c4C3=O)C2(O)C(=O)C1O (stereo not drawn)
3. CCCCCCCCCCCC[n+]1ccccc1

[reply]
1: 2820; 2: 2090; 3: 2020

Quick batch: TGI for everything below.
1. C=CC(=O)N1CCC([C@@H]2CCNc3c(C(N)=O)c(-c4ccc(Oc5ccccc5)cc4)nn32)CC1
2. ICCC(c1ccccc1)(c1ccccc1)c1ccccc1

[reply]
1. 711
2. 13300

====

Exercise: state measured GI50 for each of the compounds provided.
Test system: MDA-MB-468 breast
Test: NCI tumour cell line growth inhibition, 48 h
Where a SMILES comes first, the peptide text is derived from it. [ ]: non-standard residue; d: D form. NMeY = CN[C@@H](Cc1ccc(O)cc1)C(=O)O; dNMeF = CN[C@H](Cc1ccccc1)C(=O)O; Sar = CNCC(=O)O

Quick batch: GI50 for everything below.
1. COc1cccc(-n2ncc3c(N/N=C/c4ccc(S(C)(=O)=O)cc4)ncnc32)c1
2. O=c1oc2ccc(Cl)cc2c(=O)n1-c1cc(C(F)(F)F)cc(C(F)(F)F)c1

[reply]
3660 nM
236 nM

Quick batch: GI50 for everything below.
1. ICCC(c1ccccc1)(c1ccccc1)c1ccccc1
2. O=C(CSc1nc2sc3c(c2c(=O)n1-c1ccc(Cl)cc1)CCCC3)N/N=C/C=C/c1ccccc1
3. CC[C@H](C)[C@@H]1NC(=O)[C@H](Cc2ccc(O)cc2)N(C)C(=O)[C@H](Cc2ccccc2)NC(=O)CN(C)C(=O)[C@@H]2CCCN2C(=O)[C@@H](Cc2ccccc2)N(C)C(=O)[C@H](CC(C)C)NC1=O (cyclo(F[NMeY]IL[dNMeF]P[Sar]))
4. C=CC(=O)N1CCC([C@@H]2CCNc3c(C(N)=O)c(-c4ccc(Oc5ccccc5)cc4)nn32)CC1
5. CC1(O)CC2(O)C=CC3=C(C(=O)c4cccc(O)c4C3=O)C2(O)C(=O)C1O (stereo unspecified)
6. Cc1ncc(C(=O)Nc2ccc(CN3CCN(C)CC3)c(C(F)(F)F)c2)cc1C#Cc1cnc(N)c2ncccc12

[reply]
3170 nM
1850 nM
367 nM
57 nM
735 nM
1100 nM
